TEST_SYSTEM: AKR1C2 (Homo sapiens (Human))
Sequence (P52895 whole entry): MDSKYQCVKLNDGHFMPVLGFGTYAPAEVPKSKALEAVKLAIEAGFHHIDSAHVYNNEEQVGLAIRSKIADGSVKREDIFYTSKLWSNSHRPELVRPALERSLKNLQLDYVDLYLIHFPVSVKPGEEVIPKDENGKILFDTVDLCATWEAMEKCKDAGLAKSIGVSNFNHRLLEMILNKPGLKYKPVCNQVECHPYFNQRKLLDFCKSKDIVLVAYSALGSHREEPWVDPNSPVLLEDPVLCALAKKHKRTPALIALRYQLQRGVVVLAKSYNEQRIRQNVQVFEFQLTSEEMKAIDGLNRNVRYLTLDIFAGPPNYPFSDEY
EXPERIMENT_DESCRIPTION: AKR enzyme inhibition assay, NADP+ dependent oxidation of S-tetralol, AKR1C2 counter-screen
Type: biochemical
EXPERIMENTAL_CONDITIONS: Table 2; recombinant enzyme, S-tetralol at Km; read-out: IC50 ± SD AKR1C2
METRIC_NAME: IC50 (µM)

Example results:
Provide AKR1C2 (Homo sapiens (Human)) IC50 reading for C/C=C\Cc1cc(/C=C/C(=O)O)cc(C(=O)NCc2ccc(C)cc2)c1 [Compound A1-aa] .
16

Provide AKR1C2 (Homo sapiens (Human)) IC50 reading for Cc1ccc(CNC(=O)c2cc(/C=C/C(=O)O)cc(-c3ccc(-n4c5ccccc5c5ccccc54)cc3)c2)cc1 [Compound A1-v] .
31

Provide AKR1C2 (Homo sapiens (Human)) IC50 reading for Cc1ccc(CNC(=O)c2cc(C#Cc3ccccc3)cc(/C=C/C(=O)O)c2)cc1 [Compound A1-w] .
11

I. Cc1ccc(CNC(=O)c2cc(/C=C/C(=O)O)cc(-c3ccc(-c4ccccc4)cc3)c2)cc1 [Compound A1-u]
II. Cc1ccc(CNC(=O)c2cc(/C=C/C(=O)O)cc(-c3ccc4nccnc4c3)c2)cc1 [Compound A1-q]
III. Cc1ccc(CNC(=O)c2cc(/C=C/C(=O)O)cc(-c3ccc(Cl)cc3)c2)cc1 [Compound A1-c]
List items by IC50 in falling order. Write the labels, ordered according to the request.
I, III, II

====

TEST_SYSTEM: AKR1C3 (Homo sapiens (Human), UniProt P42330)
Sequence (P42330 whole entry): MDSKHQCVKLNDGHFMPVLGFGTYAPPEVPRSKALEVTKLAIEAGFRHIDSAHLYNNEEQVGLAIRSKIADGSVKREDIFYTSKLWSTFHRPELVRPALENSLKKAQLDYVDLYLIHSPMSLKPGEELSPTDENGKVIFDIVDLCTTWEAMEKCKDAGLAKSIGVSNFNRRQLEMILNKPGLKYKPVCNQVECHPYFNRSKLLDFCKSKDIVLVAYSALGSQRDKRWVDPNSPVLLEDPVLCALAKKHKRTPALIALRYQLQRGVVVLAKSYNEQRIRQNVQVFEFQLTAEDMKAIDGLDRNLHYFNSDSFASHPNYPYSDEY
EXPERIMENT_DESCRIPTION: AKR enzyme inhibition assay, NADP+ dependent oxidation of S-tetralol, AKR1C3
Type: biochemical
EXPERIMENTAL_CONDITIONS: AKR1C3 over AKR1C2
METRIC_NAME: selectivity over AKR1C2 (fold)

Provide AKR1C3 (Homo sapiens (Human), UniProt P42330) selectivity over AKR1C2 reading for `Cc1ccc(CNC(=O)c2cc(/C=C/C(=O)O)cc(-c3ccc4c(c3)OCCO4)c2)cc1` .
200

Provide AKR1C3 (Homo sapiens (Human), UniProt P42330) selectivity over AKR1C2 reading for `Cc1ccc(CNC(=O)c2cc(C#CC3CC3)cc(/C=C/C(=O)O)c2)cc1` .
74

Provide AKR1C3 (Homo sapiens (Human), UniProt P42330) selectivity over AKR1C2 reading for `Cc1ccc(CNC(=O)c2cc(/C=C/C(=O)O)cc(-c3ccc(Oc4ccccc4)cc3)c2)cc1` .
51

Provide AKR1C3 (Homo sapiens (Human), UniProt P42330) selectivity over AKR1C2 reading for `Cc1ccc(CNC(=O)c2cc(/C=C/C(=O)O)cc(-c3ccc(-n4c5ccccc5c5ccccc54)cc3)c2)cc1` .
221

Provide AKR1C3 (Homo sapiens (Human), UniProt P42330) selectivity over AKR1C2 reading for `C/C=C\Cc1cc(/C=C/C(=O)O)cc(C(=O)NCc2ccc(C)cc2)c1` .
200

1. Cc1ccc(CNC(=O)c2cc(/C=C/C(=O)O)cc(-c3ccc4ccccc4c3)c2)cc1
2. C/C=C/Cc1cc(/C=C/C(=O)O)cc(C(=O)NCc2ccc(C)cc2)c1
Which record would sort first by descending selectivity over AKR1C2, 1 or 2 ? Pick one and reply with its label.
2

P. Cc1ccc(CNC(=O)c2cc(C#Cc3ccccc3)cc(/C=C/C(=O)O)c2)cc1
Q. Cc1ccc(CNC(=O)c2cc(/C=C/C(=O)O)cc(CC(C)c3ccccc3)c2)cc1 (stereo not drawn)
Identify the entry with the smaller selectivity over AKR1C2: P or Q . Pick one and reply with its label.
P
(P: 61 fold, Q: 177 fold)

P. Cc1ccc(CNC(=O)c2cc(/C=C/C(=O)O)cc(-c3ccc(CN4CCOCC4)c(F)c3)c2)cc1
Q. Cc1ccc(CNC(=O)c2cc(/C=C/C(=O)O)cc(-c3cccc(F)c3)c2)cc1
Identify the entry with the smaller selectivity over AKR1C2: P or Q . Pick one and reply with its label.
P
